# Test system: pure tubulin
# TEST: Tubulin polymerization test with pure tubulin without GTP
# Type: biochemical, bovine
# STATED_CONDITIONS: no GTP, 24.3 μM
For each record, write down the corresponding A340 at 10 min.

COMPOUND	TARGET_DESC	A340 at 10 min
C[C@H](Nc1c(-c2c(F)cc(OCCCO)cc2F)c(Cl)nc2ncnn12)C(F)(F)F [Example 20]	pure tubulin	0.03
CC(=O)O[C@H]1C(=O)[C@@]2(C)[C@H]([C@H](OC(=O)c3ccccc3)[C@]3(O)C[C@H](OC(=O)[C@H](O)[C@@H](NC(=O)c4ccccc4)c4ccccc4)C(C)=C1C3(C)C)[C@]1(OC(C)=O)CO[C@@H]1C[C@@H]2O [Paclitaxel, reference compound]	pure tubulin	0
CNCCCOc1cc(F)c(-c2c(Cl)nc3ncnn3c2C2CCCCCC2)c(F)c1.O=C(O)C(F)(F)F [Example 32]	pure tubulin	0.26
C[C@H](Nc1c(-c2c(F)cc(OCCCN3CCOCC3)cc2F)c(Cl)nc2ncnn12)C(F)(F)F.Cl [Example 11a]	pure tubulin	0.24

Consider the record given below.
Data request: Return A340 at 10 min (reported value) for this compound: CC(=O)O[C@@]12CO[C@@H]1C[C@H](O)[C@@]1(C)C(=O)[C@H](O)C3=C(C)[C@@H](OC(=O)[C@H](O)[C@@H](NC(=O)OC(C)(C)C)c4ccccc4)C[C@@](O)([C@@H](OC(=O)c4ccccc4)[C@H]21)C3(C)C [Docetaxel, reference compound]
Data returned: 0.20

====

# System: HeLa cells
# TEST: Cell cycle analysis with HeLa cells
# Type: cell-based, human
# STATED_CONDITIONS: 18 hr, 40 nM
For each record, write down the corresponding Percent in Cell Cycle Phase G1.
Param answer (str): number followed by unit.

Reference set, count: 5
COMPOUND	REPORTED_MEASUREMENT
C[C@H](Nc1c(-c2c(F)cc(OCCCN(C)C)cc2F)c(Cl)nc2ncnn12)C(F)(F)F.Cl [Example 1a]	7%
CC[C@]1(O)C[C@H]2CN(CCc3c([nH]c4ccccc34)[C@@](C(=O)OC)(c3cc4c(cc3OC)N(C=O)[C@H]3[C@@](O)(C(=O)OC)[C@H](OC(C)=O)[C@]5(CC)C=CCN6CC[C@]43[C@@H]65)C2)C1 [Vincristine, reference compound]	8%
CNCCCOc1cc(F)c(-c2c(Cl)nc3ncnn3c2N[C@@H](C)C(F)(F)F)c(F)c1.Cl [Example 2a]	5%
COc1cc2c(c(OC)c1OC)-c1ccc(OC)c(=O)cc1[C@@H](NC(C)=O)CC2 [Colchicine, reference compound]	16%
CNCCCOc1cc(F)c(-c2c(Cl)nc3ncnn3c2NCC(F)(F)F)c(F)c1.Cl [Example 3a]	6%

Data request: Return Percent in Cell Cycle Phase G1 (reported value) for this compound: CN(C)CCCOc1cc(F)c(-c2c(Cl)nc3ncnn3c2NCC(F)(F)F)c(F)c1.Cl [Example 4a]
Data returned: 8%

====

# Test system: HeLa cells
# TEST: Cell cycle analysis with HeLa cells
# Format: cell-based, human
# STATED_CONDITIONS: 18 hr, 120 nM
For each record, write down the corresponding Percent in Cell Cycle Phase S.
Numbers only, in %.

Reference set, count: 3
> print(dat)
                            molecule.smiles  target.desc              observed.property  reported.measurement
1  CNCCCOc1cc(F)c(-c2c(Cl)nc3ncnn3c2N[C@@H](C)C(F)(F)F)c(F)c1.Cl   HeLa cells  Percent in Cell Cycle Phase S                    15
2  C[C@H](Nc1c(-c2c(F)cc(OCCCN(C)C)cc2F)c(Cl)nc2ncnn12)C(F)(F)F.Cl   HeLa cells  Percent in Cell Cycle Phase S                    14
3  CN(C)CCCOc1cc(F)c(-c2c(Cl)nc3ncnn3c2NCC(F)(F)F)c(F)c1.Cl   HeLa cells  Percent in Cell Cycle Phase S                    10

Consider the record given below.
Data request: Return Percent in Cell Cycle Phase S (reported value) for this compound: CNCCCOc1cc(F)c(-c2c(Cl)nc3ncnn3c2NCC(F)(F)F)c(F)c1.Cl
Data returned: 12

====

# Tested on: HeLa cells
# TEST: Cell cycle analysis with HeLa cells
# Type: cell-based, human
# STATED_CONDITIONS: 18 hr, 50 nM
OBSERVED_PROPERTY: Percent in Cell Cycle Phase S (%)
Numbers only, in %.

> print(dat)
                                   molecule  reported.measurement
1  C[C@H](Nc1c(-c2c(F)cc(OCCCN(C)C)cc2F)c(Cl)nc2ncnn12)C(F)(F)F.Cl [Example 1a]                     9
2  CNCCCOc1cc(F)c(-c2c(Cl)nc3ncnn3c2NCC(F)(F)F)c(F)c1.Cl [Example 3a]                     8
3  CNCCCOc1cc(F)c(-c2c(Cl)nc3ncnn3c2N[C@@H](C)C(F)(F)F)c(F)c1.Cl [Example 2a]                     9

Data request: Return Percent in Cell Cycle Phase S (reported value) for this molecule: CN(C)CCCOc1cc(F)c(-c2c(Cl)nc3ncnn3c2NCC(F)(F)F)c(F)c1.Cl [Example 4a]
Data returned: 9

====

For each record, write down the corresponding A340 at 10 min.
# System: pure tubulin
# TEST: Tubulin polymerization test with pure tubulin without GTP
# Type: biochemical, bovine
# STATED_CONDITIONS: no GTP, 24.3 μM
Numbers only.

Reference set, count: 5
COMPOUND	TARGET_DESC	A340 at 10 min
CC[C@]1(O)C[C@H]2CN(CCc3c([nH]c4ccccc34)[C@@](C(=O)OC)(c3cc4c(cc3OC)N(C=O)[C@H]3[C@@](O)(C(=O)OC)[C@H](OC(C)=O)[C@]5(CC)C=CCN6CC[C@]43[C@@H]65)C2)C1 [Vincristine, reference compound]	pure tubulin	0.01
CNCCCOc1cc(F)c(-c2c(Cl)nc3ncnn3c2N[C@@H](C)C(F)(F)F)c(F)c1.Cl [Example 2a]	pure tubulin	0.24
OCCCOc1cc(F)c(-c2c(Cl)nc3ncnn3c2C2CCCCCC2)c(F)c1 [Example 30]	pure tubulin	0.01
CNCCCOc1cc(F)c(-c2c(Cl)nc3ncnn3c2NCC(F)(F)F)c(F)c1.Cl [Example 3a]	pure tubulin	0.20
C[C@H](Nc1c(-c2c(F)cc(OCCCN(C)C)cc2F)c(Br)nc2ncnn12)C(F)(F)F [Example 25]	pure tubulin	0.23

Parameters: items (list). Returns: A340 at 10 min for each item.
1. C[C@H](Nc1c(-c2c(F)cc(OCCCN(C)C)cc2F)c(Cl)nc2ncnn12)C(F)(F)F.Cl [Example 1a]
2. CN(C)CCCOc1cc(F)c(-c2c(Cl)nc3ncnn3c2NCC(F)(F)F)c(F)c1.Cl [Example 4a]

Data returned:
[0.23, 0.16]

====

# System: HeLa cells
# TEST: Cell cycle analysis with HeLa cells
# Assay type: cell-based, human
# STATED_CONDITIONS: 18 hr, 30 nM
OBSERVED_PROPERTY: Percent in Cell Cycle Phase G2/M (%)
One number for each entry, in %.

MOLECULE	Percent in Cell Cycle Phase G2/M [%]
C[C@H](Nc1c(-c2c(F)cc(OCCCN(C)C)cc2F)c(Cl)nc2ncnn12)C(F)(F)F.Cl	14

Parameters: items (list). Returns: Percent in Cell Cycle Phase G2/M for each item.
1. CNCCCOc1cc(F)c(-c2c(Cl)nc3ncnn3c2N[C@@H](C)C(F)(F)F)c(F)c1.Cl
2. COc1cc2c(c(OC)c1OC)-c1ccc(OC)c(=O)cc1[C@@H](NC(C)=O)CC2 [Colchicine, reference compound]
3. CNCCCOc1cc(F)c(-c2c(Cl)nc3ncnn3c2NCC(F)(F)F)c(F)c1.Cl
4. CN(C)CCCOc1cc(F)c(-c2c(Cl)nc3ncnn3c2NCC(F)(F)F)c(F)c1.Cl
5. CC[C@]1(O)C[C@H]2CN(CCc3c([nH]c4ccccc34)[C@@](C(=O)OC)(c3cc4c(cc3OC)N(C=O)[C@H]3[C@@](O)(C(=O)OC)[C@H](OC(C)=O)[C@]5(CC)C=CCN6CC[C@]43[C@@H]65)C2)C1 [Vincristine, reference compound]

Data returned:
16
36
21
15
55

====

For each record, write down the corresponding [3H]Colchicine binding, percent of control without competitor, Mean.
# Test system: tubulin heterodimer
# TEST: Competitive binding test, [3H]colchicine
# Design: species or system bovine
# STATED_CONDITIONS: [3H]colchicine 50 nM
Param answer (str): number followed by unit.

> print(dat)
                                   compound  reported.measurement
1  C[C@H](Nc1c(-c2c(F)cc(OCCCN(C)C)cc2F)c(Cl)nc2ncnn12)C(F)(F)F.Cl [Example 1a]                  129%
2  CNCCCOc1cc(F)c(-c2c(Cl)nc3ncnn3c2NCC(F)(F)F)c(F)c1.Cl [Example 3a]                  134%
3  C[C@H](Nc1c(-c2c(F)cc(OCCCN3CCOCC3)cc2F)c(Cl)nc2ncnn12)C(F)(F)F.Cl [Example 11a]                  121%
4  CN(C)CCCOc1cc(F)c(-c2c(Cl)nc3ncnn3c2NCC(F)(F)F)c(F)c1.Cl [Example 4a]                  134%

Consider the record given below.
Data request: Return [3H]Colchicine binding, percent of control without competitor, Mean (reported value) for this compound: CNCCCOc1cc(F)c(-c2c(Cl)nc3ncnn3c2N[C@@H](C)C(F)(F)F)c(F)c1.Cl [Example 2a]
Data returned: 122%

Entry source: patent US7507739B2
